Target: Human JAK2 (Homo sapiens (Human), UniProt O60674)
Sequence (O60674 whole entry): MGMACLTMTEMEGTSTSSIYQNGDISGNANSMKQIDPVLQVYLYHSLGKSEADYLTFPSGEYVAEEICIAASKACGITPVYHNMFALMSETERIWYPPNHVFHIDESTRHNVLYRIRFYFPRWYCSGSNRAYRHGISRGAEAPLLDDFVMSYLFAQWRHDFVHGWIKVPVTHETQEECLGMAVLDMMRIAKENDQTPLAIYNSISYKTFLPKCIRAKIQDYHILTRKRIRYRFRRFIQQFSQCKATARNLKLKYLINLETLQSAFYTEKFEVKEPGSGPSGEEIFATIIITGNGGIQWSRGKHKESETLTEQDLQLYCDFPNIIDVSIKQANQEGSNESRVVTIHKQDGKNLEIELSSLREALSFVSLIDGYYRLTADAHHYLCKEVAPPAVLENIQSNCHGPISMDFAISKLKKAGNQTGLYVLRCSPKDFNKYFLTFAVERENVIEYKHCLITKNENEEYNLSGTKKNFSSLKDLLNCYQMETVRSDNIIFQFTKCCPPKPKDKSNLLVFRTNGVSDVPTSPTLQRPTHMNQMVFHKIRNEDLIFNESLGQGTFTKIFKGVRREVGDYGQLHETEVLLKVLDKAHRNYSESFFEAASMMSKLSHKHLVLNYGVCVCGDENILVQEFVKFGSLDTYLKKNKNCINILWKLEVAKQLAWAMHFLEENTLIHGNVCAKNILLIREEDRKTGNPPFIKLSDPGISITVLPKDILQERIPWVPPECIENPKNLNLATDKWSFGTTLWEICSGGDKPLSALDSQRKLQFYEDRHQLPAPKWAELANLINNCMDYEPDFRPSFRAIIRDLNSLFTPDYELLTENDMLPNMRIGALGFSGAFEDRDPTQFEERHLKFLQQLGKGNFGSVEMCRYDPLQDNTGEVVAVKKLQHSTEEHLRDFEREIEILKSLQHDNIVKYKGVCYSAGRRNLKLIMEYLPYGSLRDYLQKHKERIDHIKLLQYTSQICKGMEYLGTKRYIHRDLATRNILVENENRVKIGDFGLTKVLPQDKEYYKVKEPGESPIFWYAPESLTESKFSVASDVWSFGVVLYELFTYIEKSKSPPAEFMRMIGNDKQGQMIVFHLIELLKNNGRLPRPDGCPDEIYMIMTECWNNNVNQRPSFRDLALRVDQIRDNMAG
Assay: In vitro kinase inhibition test, JAK2 (33P-ATP filter scintillation)
Assay type: biochemical
Settings: compound at 1 uM; read-out: JAK2 kinase-phosphorylation inhibitory level (% inhibition)
Procedure: 1. In Vitro Kinase Inhibition Test Kinases used were human-derived JAK1, JAK2, JAK3, and TYK2 (Millipore, Germany). Each of these kinases was diluted with a suitable buffer solution as described below, and then mixed with reagents. […]
Measured Metric: inhibition at 1 µM (%)

Worked set:
Molecule: CCCCNC(=O)N1C[C@H](N(C)c2ncnc3[nH]ccc23)C2(CC2)C1
Unit String: %
inhibition at 1 µM: -3
--
Molecule: CN(c1ncnc2[nH]ccc12)[C@H]1CN(C(=O)c2cccnc2)CC12CC2
Unit String: %
inhibition at 1 µM: -11
--
Molecule: CN(c1ncnc2[nH]ccc12)C1CN(C(=O)Cn2ccnc2)CC12CC2 (centres unmarked)
Unit String: %
inhibition at 1 µM: -17

P: CN(c1ncnc2[nH]ccc12)[C@H]1CN(S(=O)(=O)N2CCOCC2)CC12CC2
Q: CN(c1ncnc2[nH]ccc12)[C@H]1CN(S(=O)(=O)c2cccc(C#N)c2)CC12CC2
Exercise: Name the one with the greater inhibition at 1 µM value, either P or Q as given. Provide the label of your selected option as the answer.
Key: Q
(Q: 99%, P: 60%)

P: CC(C)CC(=O)N1C[C@H](N(C)c2ncnc3[nH]ccc23)C2(CC2)C1
Q: CN(c1ncnc2[nH]ccc12)[C@H]1CN(S(=O)(=O)c2cccc(F)c2)CC12CC2
Exercise: Hi there, can you help? I need to know whether P or Q has lower measured inhibition at 1 µM. In your reply, give the label of the chosen option.
Key: P
